B1: tRNA (parent)
chain: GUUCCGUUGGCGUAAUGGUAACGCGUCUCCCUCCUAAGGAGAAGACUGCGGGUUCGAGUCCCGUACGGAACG

- Variants of: B1
- EXPERIMENTAL DETAILS: yeast fitness, log relative to wild type (ln ratio); higher = fitter; tRNA-Arg(CCU), competitive growth, 37 C, 1 M NaCl
QUANTITY MEASURED: yeast fitness (ln)
Number only, no unit.

Consider the worked cases shown below.
QUERY: Return the recorded yeast fitness (ln) value; entry: U2C G6A C27U A43C C46U A69G A70G C71U
RESULT: -0.13

QUERY: Return the recorded yeast fitness (ln) value; entry: G1A U2G A69G A70U
RESULT: -0.232

QUERY: Return the recorded yeast fitness (ln) value; entry: U2G G6A C46U A69G A70G
RESULT: -0.115

QUERY: Return the recorded yeast fitness (ln) value; entry: A43C C66U C71U
RESULT: -0.206

QUERY: Return the recorded yeast fitness (ln) value; entry: G1A G6U A43C C46U C66U A70G C71U
RESULT: -0.278

Others:
QUERY: Return the recorded yeast fitness (ln) value; entry: G1A U2C G6U A43C C46U C66A A70G
RESULT: -0.000562

QUERY: Return the recorded yeast fitness (ln) value; entry: U2G C46U C66U
RESULT: -0.0936

QUERY: Return the recorded yeast fitness (ln) value; entry: G1A G6U C27U C46U C66U A69G A70U
RESULT: -0.454

QUERY: Return the recorded yeast fitness (ln) value; entry: C27U C66A A70U
RESULT: -0.0748

QUERY: Return the recorded yeast fitness (ln) value; entry: U2C C27U C46U A70U C71U
RESULT: -0.09

QUERY: Return the recorded yeast fitness (ln) value; entry: G6A C27U A43C C46U C66U A70G C71U
RESULT: -0.213

QUERY: Return the recorded yeast fitness (ln) value; entry: G1A U2G G6U A43C C46U C66A A70U
RESULT: -0.303

QUERY: Return the recorded yeast fitness (ln) value; entry: G6A C27U A43C C46U C66U C71U
RESULT: -0.464

QUERY: Return the recorded yeast fitness (ln) value; entry: U2C G6A A43C C66U A69G A70U C71U
RESULT: -0.366
